Test: COS7 lysate on small-molecule microarray, probe aHis, 635 nm (AID 1123);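 also: z-score combines 667nm fluorescence intensity with signal-to-noise per printed compound spot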
Details: COS7 cell lysate, fluorescence, higher = more signal
observed-property: composite z-score
Answer with a bare number; do not write a unit.

Task: Look up composite z-score for this compound: O=C1O[C@H](c2ccccc2)[C@H](c2ccccc2)N2[C@H]1[C@@H](C(=O)N1CCN(c3ncccn3)CC1)[C@]1(C(=O)Nc3ccc(C#CC4(O)CCCCCC4)cc31)[C@H]2c1ccc(OCCO)cc1
Result: 3.46

Task: Field request: composite z-score | item: C=C(C)[C@@H]1CC=C(C(O)C2C=CC3C(=O)N(c4ccccc4)C(=O)C3N2Nc2ccccc2F)CC1 (some centres undefined)
Result: 3.08

Task: Consider the compound shown here: CCOC(=O)C1=CC[C@@H](c2cccc(Cl)c2)N(S(=O)(=O)c2ccc(C)cc2)C1 What is its recorded composite z-score?
Result: 2.15

Task: Please report the recorded composite z-score for OCCCC1=CC(c2ccc(CN3CCCC3)cc2)N(Cc2sc3ccccc3c2Cl)CC1 (centres undefined) .
Result: 0.504
